Molecular target: human FSH receptor (Homo sapiens, UniProt P23945)
Construct: expressed in transfected cells; host or cells: CHO cells, cotransfected with a CRE/promotor firefly luciferase reporter
Sequence (P23945 18-695): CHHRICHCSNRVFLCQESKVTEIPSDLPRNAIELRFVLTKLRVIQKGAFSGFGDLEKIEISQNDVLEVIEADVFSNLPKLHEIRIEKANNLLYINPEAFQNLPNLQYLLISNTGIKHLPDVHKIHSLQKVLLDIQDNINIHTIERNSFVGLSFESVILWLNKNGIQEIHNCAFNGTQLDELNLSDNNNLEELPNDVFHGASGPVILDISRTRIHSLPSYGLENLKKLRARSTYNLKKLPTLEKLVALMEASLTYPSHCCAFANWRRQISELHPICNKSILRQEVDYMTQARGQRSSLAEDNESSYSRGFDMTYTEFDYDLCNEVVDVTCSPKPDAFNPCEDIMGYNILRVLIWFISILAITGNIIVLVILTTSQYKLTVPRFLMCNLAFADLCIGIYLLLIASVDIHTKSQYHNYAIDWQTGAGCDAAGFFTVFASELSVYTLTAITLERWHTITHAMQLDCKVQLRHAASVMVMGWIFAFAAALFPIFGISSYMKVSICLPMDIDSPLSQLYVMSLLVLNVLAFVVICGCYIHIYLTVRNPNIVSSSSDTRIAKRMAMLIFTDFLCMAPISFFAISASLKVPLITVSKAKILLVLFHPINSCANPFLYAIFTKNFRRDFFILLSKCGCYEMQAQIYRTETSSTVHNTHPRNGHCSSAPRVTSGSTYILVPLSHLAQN
Assay: Antagonistic activity at the human FSH receptor expressed in CHO cells (CRE-luciferase reporter)
Format: cell-based
Conditions: CHO cells stably transfected with human FSH receptor and CRE/firefly luciferase reporter; 4 hours incubation; read-out: pIC50 (negative logarithm of the IC50 value) (converted)
Measured IC50 of individual entries

Example entries begin here.
Cc1cc(NC(=O)C2CCN(c3ccnc(-c4cccc(-n5cccn5)c4)n3)CC2)cc(OC(F)(F)F)c1 [Example 46]	10 to 100 nM
COc1cc(OCc2ccc(F)cc2)cc(C(=O)NCC2CCN(c3ccnc(-c4cccc(-n5cccn5)c4)n3)CC2)c1 [Example 14]	10 to 100 nM
COc1cc(NC(=O)C2CCN(c3ccnc(-c4cccc(-n5cccn5)c4)n3)CC2)cc(OCC2CCCCC2)c1 [Example 45]	10 to 100 nM
COc1cc(OCC2CC2)cc(C(=O)NCC2CCN(c3ncnc(-c4cccc(-n5cccn5)c4)n3)CC2)c1 [Example 17A]	< 10 nM
COc1cc(OCC2CC2)cc(C(=O)NCC2CCN(c3ccnc(-c4ccc5[nH]ncc5c4)n3)CC2)c1 [Example 19E]	10 to 100 nM

Then this compound:
Sample COc1cc(OCC2CC2)cc(C(=O)NC(C)C2CCN(c3ncnc(-c4cccc(-c5cc[nH]n5)c4)n3)CC2)c1 (centres unmarked) [Example 37] ; IC50 observed: < 10 nM
